Molecular target: T1, human complement factor D purified from serum (human, UniProt P00746 26-253)
T1 construct: serum-purified (CompTech); also called hCFD-Comptech; CFD
T1 sequence (P00746 26-253): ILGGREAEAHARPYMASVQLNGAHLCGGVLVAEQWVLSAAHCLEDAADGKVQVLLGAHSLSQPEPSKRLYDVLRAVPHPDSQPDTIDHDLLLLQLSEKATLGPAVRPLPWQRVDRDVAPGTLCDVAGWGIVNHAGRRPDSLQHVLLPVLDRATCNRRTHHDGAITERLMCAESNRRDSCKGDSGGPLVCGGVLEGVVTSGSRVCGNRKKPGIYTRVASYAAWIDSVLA
Test: SPR MX96
measurementType: Kd (nM)
Respond with the bare value in nM.

[[record]]
binder = "KCD070 (antibody, V domains shown, chimeric) VH: EIQLQQTGPELVKPGASVKISCKASGYSFTDYIILWVKQSHGKSLEWIGNINPYYDYTSYNLKFKGKATLTVDKSSSTAYMQLNSLTSEDSAVYYCARSDGYYGGDYWGQGTSVTVSS VL: DIVMTQSHKFMSTSVGDRVSITCKASQDVGTAVAWYQQKPGQSPKLLIYWASTRHTGVPDRFTGSGSGTDFTLTINNVQSEDLADYFCQQYSSYPWTFGGGTTLEIK"
unitname = "nM"
reportedvalue = 3.8


Continue with the next binder.
# Kd of KCD205 (antibody, V domains shown) VH: EVQLQQSGAELVRPGSSVKMSCKTSGNTFTSHGINWVKQRPGQGLEWIGYIYIGNGYNEYNEKFKGKATLTSDTSSSTAYMQLSSLTSEDSAIYFCVRKAYGNYGFDDWGQGTTLTVSS VL: DIQMTQSPSSLSASLGERVSLTCRASQEISGYLSWLQQKPDGTIKRLIYAASTLDSGVPKRFSGSSSGSDYSLTISSLESDDFADYYCLQYASYPFTFGSGTKLEIK = 3
